assay: APR_HepG2_CellLoss_24hr: Apredica 24-hour HepG2 Assay for Cell Loss (AID 2282908); settings: high-content imaging
The source made the active and inactive calls. The calls were made as follows: active = hit-call score of the fitted dose curve at least 0.9, where 1 is the maximum; inactive = score below 0.9.
Please reply with one of these outcomes: active, inactive

Solved cases below.
>>> class_label("OCCN(CCO)CCO")
"inactive"
>>> class_label("O=C(O)C1(c2ccc3c(c2)OC[C@H](Cc2ccc(-c4ccccc4)cc2)[C@H]3O)CCCC1")
"inactive"
>>> class_label("Clc1cccc(Cl)c1")
"inactive"
>>> class_label("CCCCCCCCCCCCc1cccc(S(=O)(=O)O)c1")
"inactive"
>>> class_label("CC(C)(C)c1ccccc1O")
"inactive"

# input Recorded test call requested for CN(C)C(=S)S
# output active

# input Test call, this compound: COc1ccccc1N
# output inactive

# input Name the outcome recorded for O=C(N[C@H]1CN2CCC1CC2)c1ccc2c(c1)OCCO2 in the assay.
# output inactive

---

assay: CCTE_Mundy_HCI_Cortical_Synap_Neur_Matur_NeuriteLength: CCTE's Synaptogenesis and Neurite Maturation Assay in rat cortical cells for Neurite Length, Mundy Lab (AID 2284214)
Active and inactive are the calls of the source. How the source made its calls: active means hit-call score of the fitted dose curve at least 0.9, where 1 is the maximum; inactive means score below 0.9.
Allowed answers: YES for active, NO for inactive

Please review the entries below; each comes with its answer.
>>> class_label("NC(=O)c1ccc(N)nc1")
"YES"
>>> class_label("CS(=O)(=O)c1ccc(C(=O)C2C(=O)CCCC2=O)c(Cl)c1COCC(F)(F)F")
"NO"
>>> class_label("CCOCn1c(-c2ccc(Cl)cc2)c(C#N)c(Br)c1C(F)(F)F")
"YES"
>>> class_label("Cc1cc(C(F)(C(F)(F)F)C(F)(F)F)ccc1NC(=O)c1cccc(I)c1C(=O)NC(C)(C)CS(C)(=O)=O")
"NO"
>>> class_label("Cc1ccccc1OP(=O)(Oc1ccccc1C)Oc1ccccc1C")
"YES"
>>> class_label("CC(C)[C@@H](Nc1ccc(C(F)(F)F)cc1Cl)C(=O)OC(C#N)c1cccc(Oc2ccccc2)c1 (some centres not stated)")
"NO"

Query compound follows.
# input Hey, what did the test say about OC(Cc1ccccc1Cl)(Cn1[nH]cnc1=S)C1(Cl)CC1 (configuration not stated) ?
# output YES

---

test: BSK_BT_Bcell_Proliferation: Viability Assessment in the BioMAP Diversity Plus: BT Assay for B cell Proliferation (AID 2284227); settings: primary human B cells with PBMC
Activity calls are given as the source filed them. The calls were made as follows: active = hit-call score of the fitted dose curve at least 0.9, where 1 is the maximum; inactive = score below 0.9.
Outcome field: choose from true = active, false = inactive

>>> class_label("O=[N+]([O-])c1ccc(Nc2ccccc2)cc1")
"false"

# input # lookup: test call for O=C(O)COc1cc(Cl)c(Cl)cc1Cl
# output false

# input Assay result, entry CC(C)(COCC1CO1)COCC1CO1 (centres undefined) — outcome?
# output true

# input How was Oc1ccc(Cc2ccc(O)cc2)cc1 classified in this test?
# output false

# input Recorded call for O=S(=O)(C(Cl)(Cl)Cl)C(Cl)(Cl)Cl ?
# output true

# input Tell me the recorded outcome of this test for CC(C)=CC1C(C(=O)OCc2cccc(Oc3ccccc3)c2)C1(C)C (centres undefined) .
# output true

---

experiment: ATG_PPRE_CIS: Attagene CIS-FACTORIAL HepG2 Assay for human Peroxisome Proliferator-activated Response Element (PPRE) (AID 2282958); settings: HepG2 PPRE cis-element reporter, Attagene transcription factor profiling; actives raise or lower the signal
Active and inactive are the calls of the source. The calls were made as follows: active = hit-call score of the fitted dose curve at least 0.9, where 1 is the maximum; inactive = score below 0.9.
# output must be one of active, inactive

>>> class_label("CCOP(=S)(OCC)OP(=S)(OCC)OCC")
"inactive"
>>> class_label("COc1ccc(N)cc1")
"inactive"
>>> class_label("O=NN1CCOCC1")
"inactive"
>>> class_label("O=[N+]([O-])c1cc([As](=O)(O)O)ccc1O")
"inactive"
>>> class_label("Nc1c(Oc2ccccc2)cc(O)c2c1C(=O)c1ccccc1C2=O")
"inactive"
>>> class_label("C[C@H]1C(=O)O[C@@H]2CCN3CC=C(COC(=O)[C@](C)(O)[C@]1(C)O)[C@H]23")
"inactive"
>>> class_label("CC(=O)C(F)(F)C(F)(F)F")
"inactive"
>>> class_label("Cc1cc(Cl)ccc1OC(C)C(=O)O (stereo not given)")
"active"
>>> class_label("CC(C=O)Cc1ccc2c(c1)OCO2 (stereo not given)")
"inactive"
>>> class_label("O=S1(=O)OC(c2cc(Br)c(O)c(Br)c2)(c2cc(Br)c(O)c(Br)c2)c2ccccc21")
"active"

# input Hi, sorry to bother you, what did the test record for N#CCCC(Br)(C#N)CBr (stereo not given) ?
# output inactive

# input Could you check what this test reported for N#Cc1ccccc1Cl ?
# output inactive

# input Returns: the outcome recorded for Cc1cccc(C)c1NC(=O)CN1CCCC1=O in this assay.
# output inactive

# input What did this assay record as the result for Nc1ccc(Br)cc1 ?
# output inactive
